Reference source for all entries: patent US20260315487A1

target_system: IKKα (Homo sapiens, UniProt O15111)
Sequence (O15111 whole entry): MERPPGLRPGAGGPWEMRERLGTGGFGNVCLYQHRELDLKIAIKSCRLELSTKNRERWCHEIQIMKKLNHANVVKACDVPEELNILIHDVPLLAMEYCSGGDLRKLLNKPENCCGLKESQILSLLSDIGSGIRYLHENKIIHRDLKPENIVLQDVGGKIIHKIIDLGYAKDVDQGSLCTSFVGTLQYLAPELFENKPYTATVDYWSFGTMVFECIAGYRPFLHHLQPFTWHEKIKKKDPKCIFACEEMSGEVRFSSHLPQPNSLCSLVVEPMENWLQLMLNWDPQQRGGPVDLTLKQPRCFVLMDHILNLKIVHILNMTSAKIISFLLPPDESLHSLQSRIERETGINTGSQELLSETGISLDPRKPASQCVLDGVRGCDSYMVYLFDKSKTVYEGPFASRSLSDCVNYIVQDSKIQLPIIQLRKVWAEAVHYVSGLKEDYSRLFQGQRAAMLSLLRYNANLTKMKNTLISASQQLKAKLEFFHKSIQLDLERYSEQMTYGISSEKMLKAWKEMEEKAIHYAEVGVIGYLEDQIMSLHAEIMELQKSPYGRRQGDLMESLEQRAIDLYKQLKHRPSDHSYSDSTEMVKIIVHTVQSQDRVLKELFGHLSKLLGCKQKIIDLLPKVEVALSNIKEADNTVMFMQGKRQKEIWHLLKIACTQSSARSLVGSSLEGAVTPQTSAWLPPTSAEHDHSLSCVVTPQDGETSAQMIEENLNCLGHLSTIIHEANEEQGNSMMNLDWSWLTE
assay_remarks: in-house DELFIA kinase assay, IKKα
Type: biochemical
pKi: −log10 of the molar value.
Respond with Y for pKi values of 8 and above, N for values below.

Reference set (9 entries):
Nc1n[nH]c2ccc(-c3ccnc4[nH]c(-c5cc(O)cc(F)c5)cc34)cc12 ... Y
NC(=O)c1cccc(-c2cc3c(-c4ccc5[nH]nc(N)c5c4)ccnc3[nH]2)c1 ... Y
Nc1cccc(-c2cc3c(-c4ccc5[nH]nc(N)c5c4)ccnc3[nH]2)c1 ... Y
Nc1n[nH]c2ccc(-c3ccnc4[nH]c(-c5cc(F)nc(CNc6ccccc6)c5)cc34)cc12 ... N
Nc1n[nH]c2ccc(-c3ccnc4[nH]c(-c5cc(F)nc(SCc6ccccc6)c5)cc34)cc12 ... N
Nc1n[nH]c2ccc(-c3ccnc4[nH]c5ccccc5c34)cc12 ... Y
Nc1n[nH]c2ccc(-c3ccnc4[nH]c(-c5ccnc(OCCc6ccccc6)c5)cc34)cc12 ... N
COCCNc1cc(OCc2ccccc2)cc(-c2cc3c(-c4ccc5[nH]nc(N)c5c4)ccnc3[nH]2)c1 ... N
COc1cccc(-c2cc3c(-c4ccc5[nH]nc(N)c5c4)ccnc3[nH]2)c1 ... Y

Inquiry: Can `Nc1n[nH]c2ccc(-c3ccnc4[nH]c(-c5cccc(CNc6ccccc6)c5)cc34)cc12` be said to have pKi at or above 8?
Reply text: N
